target_or_test_system: Platelet-activating factor receptor (Homo sapiens, UniProt P25105); also: in other assays of this panel Not Active means under 50% inhibition at 10 µM
Sequence (P25105 whole entry): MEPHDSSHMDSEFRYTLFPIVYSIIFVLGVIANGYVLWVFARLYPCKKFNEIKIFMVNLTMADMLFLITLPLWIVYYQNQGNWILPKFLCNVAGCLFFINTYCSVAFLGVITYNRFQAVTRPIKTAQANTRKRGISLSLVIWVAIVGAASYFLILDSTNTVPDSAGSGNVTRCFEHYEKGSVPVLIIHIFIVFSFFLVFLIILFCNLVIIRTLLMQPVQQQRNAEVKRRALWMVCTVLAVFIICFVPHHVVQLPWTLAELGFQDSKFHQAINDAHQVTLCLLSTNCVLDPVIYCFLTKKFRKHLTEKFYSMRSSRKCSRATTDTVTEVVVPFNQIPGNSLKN
Type: tissue-based
measure: IC50

substance: LIPOPOLYSACCHARIDE E. COLI O55:B5
measure: IC50
result: Not Active
//
substance: CADMIUM ACETATE
measure: IC50
result: Not Active
//
substance: LEAD (II) ACETATE
measure: IC50
result: Not Active
//
substance: SODIUM NITROPRUSSIDE
measure: IC50
result: Not Active

----------
target_or_test_system: Cytochrome P450 2C19 (Homo sapiens); also: in other assays of this panel Not Active means under 50% inhibition at 10 µM
Sequence (P33261 whole entry): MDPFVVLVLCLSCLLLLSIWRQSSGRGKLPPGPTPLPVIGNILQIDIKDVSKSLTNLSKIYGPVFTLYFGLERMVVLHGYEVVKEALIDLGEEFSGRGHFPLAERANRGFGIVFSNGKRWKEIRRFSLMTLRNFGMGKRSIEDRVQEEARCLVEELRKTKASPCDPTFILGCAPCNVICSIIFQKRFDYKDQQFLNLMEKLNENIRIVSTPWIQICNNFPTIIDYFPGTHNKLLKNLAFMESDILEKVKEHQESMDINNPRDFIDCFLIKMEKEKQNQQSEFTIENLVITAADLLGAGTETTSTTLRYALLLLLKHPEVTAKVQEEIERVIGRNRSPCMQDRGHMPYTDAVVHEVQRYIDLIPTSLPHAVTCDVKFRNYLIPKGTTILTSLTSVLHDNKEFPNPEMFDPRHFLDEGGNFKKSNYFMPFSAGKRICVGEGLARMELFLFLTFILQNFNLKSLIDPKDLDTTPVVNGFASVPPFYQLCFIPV
condition_description: bti-tn-5b1-4
measure: IC50

molecule: NCCCCCC(=O)O
target_or_test_system: Cytochrome P450 2C19 (Homo sapiens); also: in other assays of this panel Not Active means under 50% inhibition at 10 µM
IC50: Not Active
--
molecule: C[C@]12CCC(=O)C=C1CC[C@@H]1[C@@H]2CC[C@@]2(C)[C@H]1CC[C@]2(C)O
target_or_test_system: Cytochrome P450 2C19 (Homo sapiens); also: in other assays of this panel Not Active means under 50% inhibition at 10 µM
IC50: Not Active
--
molecule: CNNCc1ccc(C(=O)NC(C)C)cc1
target_or_test_system: Cytochrome P450 2C19 (Homo sapiens); also: in other assays of this panel Not Active means under 50% inhibition at 10 µM
IC50: Not Active
--
molecule: CNCCc1ccccn1
target_or_test_system: Cytochrome P450 2C19 (Homo sapiens); also: in other assays of this panel Not Active means under 50% inhibition at 10 µM
IC50: Not Active
--
molecule: CN(C)C(=O)Oc1cc(OC(=O)N(C)C)cc(C(O)CNC(C)(C)C)c1 (stereo unspecified)
target_or_test_system: Cytochrome P450 2C19 (Homo sapiens); also: in other assays of this panel Not Active means under 50% inhibition at 10 µM
IC50: Not Active
--
molecule: CC1=C2C(=CO[C@H](C)[C@H]2C)C(O)=C(C(=O)O)C1=O
target_or_test_system: Cytochrome P450 2C19 (Homo sapiens); also: in other assays of this panel Not Active means under 50% inhibition at 10 µM
IC50: Not Active
--
molecule: C=C(C)C1(O)OC(=O)C=C1OC (stereo unspecified)
target_or_test_system: Cytochrome P450 2C19 (Homo sapiens); also: in other assays of this panel Not Active means under 50% inhibition at 10 µM
IC50: Not Active
--
molecule: CCOC(=O)C1=C(COCCN)NC(C)=C(C(=O)OC)C1c1ccccc1Cl (stereo unspecified)
target_or_test_system: Cytochrome P450 2C19 (Homo sapiens); also: in other assays of this panel Not Active means under 50% inhibition at 10 µM
IC50: Not Active
--
molecule: CC(C)(C)NC(=O)[C@@H]1C[C@@H]2CCCC[C@@H]2CN1C[C@@H](O)[C@H](Cc1ccccc1)NC(=O)[C@H](CC(N)=O)NC(=O)c1ccc2ccccc2n1
target_or_test_system: Cytochrome P450 2C19 (Homo sapiens); also: in other assays of this panel Not Active means under 50% inhibition at 10 µM
IC50: Not Active
--
molecule: c1ccc([C@H]2CN3CCSC3=N2)cc1
target_or_test_system: Cytochrome P450 2C19 (Homo sapiens); also: in other assays of this panel Not Active means under 50% inhibition at 10 µM
IC50: Not Active

Could you tell me which IC50 is on file for COc1ccc(C[C@H]2NC[C@H](O)[C@H]2OC(C)=O)cc1 ?
Not Active

----------
target_or_test_system: Histamine H2 receptor (Homo sapiens, UniProt P25021); also: in other assays of this panel Not Active means under 50% inhibition at 10 µM
Sequence (P25021 whole entry): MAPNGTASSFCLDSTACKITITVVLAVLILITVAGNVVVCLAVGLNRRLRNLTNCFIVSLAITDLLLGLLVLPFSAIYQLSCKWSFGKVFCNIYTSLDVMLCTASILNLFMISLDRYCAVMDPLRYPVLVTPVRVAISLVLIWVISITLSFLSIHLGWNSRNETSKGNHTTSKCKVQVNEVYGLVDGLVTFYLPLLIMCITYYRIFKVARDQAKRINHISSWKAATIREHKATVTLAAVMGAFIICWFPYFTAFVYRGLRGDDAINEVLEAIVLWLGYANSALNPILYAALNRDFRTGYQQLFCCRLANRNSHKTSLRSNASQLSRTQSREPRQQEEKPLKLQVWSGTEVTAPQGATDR
Assay type: cell membranes, CHO-K1, Membrane
condition_description: read-out: IC50
Recorded pIC50 by entry
Remember, pIC50 is on a log scale: it is -log10 of the molar concentration.

structure_smiles_string: CN(C)CCCN1c2ccccc2Sc2ccccc21
target_or_test_system: Histamine H2 receptor (Homo sapiens, UniProt P25021); also: in other assays of this panel Not Active means under 50% inhibition at 10 µM
pIC50: 5.54

// moving on: another record for pIC50
Observed pIC50 on Histamine H2 receptor (Homo sapiens, UniProt P25021) for CC/C(=C(\c1ccccc1)c1ccc(OCCN(C)C)cc1)c1ccccc1 , please.
5.03

----------
Recorded IC50 by entry
target_or_test_system: UniProtKB P15823
Sequence (P15823 whole entry): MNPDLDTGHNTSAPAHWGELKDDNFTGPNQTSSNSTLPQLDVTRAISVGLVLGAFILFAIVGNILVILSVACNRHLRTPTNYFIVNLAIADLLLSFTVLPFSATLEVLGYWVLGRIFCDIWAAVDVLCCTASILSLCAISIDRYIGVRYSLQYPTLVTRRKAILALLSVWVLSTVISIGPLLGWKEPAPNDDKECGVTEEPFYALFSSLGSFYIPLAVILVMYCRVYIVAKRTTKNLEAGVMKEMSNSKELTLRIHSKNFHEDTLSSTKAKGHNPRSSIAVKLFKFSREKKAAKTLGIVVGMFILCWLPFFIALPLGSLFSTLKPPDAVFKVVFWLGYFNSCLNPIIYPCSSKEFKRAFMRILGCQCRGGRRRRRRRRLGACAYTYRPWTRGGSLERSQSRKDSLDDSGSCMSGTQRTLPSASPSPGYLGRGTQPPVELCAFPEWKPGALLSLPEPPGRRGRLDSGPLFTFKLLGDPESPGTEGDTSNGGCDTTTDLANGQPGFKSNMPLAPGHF
procedure_details: DRUGMATRIX: Alpha-1B adrenergic receptor radioligand binding (ligand: prazosin)
Assay type: cell membranes, Wistar, Liver, Membrane
condition_description: Not Active = under 50% inhibition at 10 µM; read-out: IC50
Write down the numeric answer in nM and omit the unit.

As a guide, the following entries are already answered.
compound: CC(C)[C@@]1(NC(=O)[C@@H]2C[C@@H]3c4cccc5[nH]cc(c45)C[C@H]3N(C)C2)O[C@@]2(O)[C@@H]3CCCN3C(=O)[C@H](Cc3ccccc3)N2C1=O.CS(=O)(=O)O [DIHYDROERGOCRISTINE MESYLATE]
measure: IC50
measured_number: 2.3

compound: CC(C)[C@H]1C(=O)N2CCC[C@H]2[C@]2(O)O[C@](NC(=O)[C@@H]3C=C4c5cccc6[nH]cc(c56)C[C@H]4N(C)C3)(C(C)C)C(=O)N12
measure: IC50
measured_number: 5.19

compound: COc1cc2nc(N3CCN(C(=O)C4COc5ccccc5O4)CC3)nc(N)c2cc1OC (stereo unspecified)
measure: IC50
measured_number: 0.751

compound: CN(C)CCCN1c2ccccc2Sc2ccccc21
measure: IC50
measured_number: 8.19

compound: O=C(CCCN1CC=C(n2c(=O)[nH]c3ccccc32)CC1)c1ccc(F)cc1
measure: IC50
measured_number: 18

Could you tell me which IC50 is on file for CCCN1C[C@H](CSC)C[C@@H]2c3cccc4[nH]cc(c34)C[C@H]21 [PERGOLIDE] ?
2620

----------
target_or_test_system: Glucocorticoid receptor (Homo sapiens, UniProt P04150); also: in other assays of this panel Not Active means under 50% inhibition at 10 µM
Sequence (P04150 whole entry): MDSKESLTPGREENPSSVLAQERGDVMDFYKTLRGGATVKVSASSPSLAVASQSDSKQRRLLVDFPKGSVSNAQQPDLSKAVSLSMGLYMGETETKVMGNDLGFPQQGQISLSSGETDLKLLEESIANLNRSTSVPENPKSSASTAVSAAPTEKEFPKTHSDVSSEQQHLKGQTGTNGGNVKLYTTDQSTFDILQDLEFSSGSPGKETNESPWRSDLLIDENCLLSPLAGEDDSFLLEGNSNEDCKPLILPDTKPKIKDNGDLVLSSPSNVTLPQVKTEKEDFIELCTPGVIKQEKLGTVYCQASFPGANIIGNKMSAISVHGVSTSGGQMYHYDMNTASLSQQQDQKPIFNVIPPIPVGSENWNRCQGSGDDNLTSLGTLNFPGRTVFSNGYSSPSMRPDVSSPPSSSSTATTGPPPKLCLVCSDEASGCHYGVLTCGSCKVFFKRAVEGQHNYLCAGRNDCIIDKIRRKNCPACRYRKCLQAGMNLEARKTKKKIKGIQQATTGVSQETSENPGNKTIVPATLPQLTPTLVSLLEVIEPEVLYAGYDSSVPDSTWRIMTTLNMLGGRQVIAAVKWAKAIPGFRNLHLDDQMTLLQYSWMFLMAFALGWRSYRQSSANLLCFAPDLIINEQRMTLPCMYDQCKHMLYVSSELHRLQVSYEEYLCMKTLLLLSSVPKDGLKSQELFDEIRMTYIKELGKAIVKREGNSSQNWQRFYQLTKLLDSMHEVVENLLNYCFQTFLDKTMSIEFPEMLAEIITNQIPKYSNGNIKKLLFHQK
procedure_details: biochemical
measure: IC50 (nM)
Write down the numeric answer in nM and omit the unit.

As a guide, the following entries are already answered.
molecule: C[C@]12CCC(=O)C=C1CC[C@@H]1[C@@H]2CC[C@@]2(C)[C@H]1CC[C@]2(C)O [METHYLTESTOSTERONE]
unit: nM
measured_number: 1840
//
molecule: CC1(C)O[C@@H]2C[C@H]3[C@@H]4CCC5=CC(=O)C=C[C@]5(C)[C@@]4(F)[C@@H](O)C[C@]3(C)[C@]2(C(=O)CO)O1 [TRIAMCINOLONE ACETONIDE]
unit: nM
measured_number: 4.41

// moving on: another record for IC50
Could you tell me which IC50 is on file for CC(=O)[C@@]1(O)CC[C@H]2[C@@H]3C[C@H](C)C4=CC(=O)CC[C@]4(C)[C@H]3CC[C@@]21C ?
19

----------
Recorded pKi by entry
procedure_details: DRUGMATRIX: Imidazoline I2, Central radioligand binding (ligand: [3H] Idazoxan)
Type: cell membranes, Rattus norvegicus, Wistar, Cerebral cortex, Membrane
condition_description: Not Active = under 50% inhibition at 10 µM; read-out: Ki
Remember, pKi is on a log scale: it is -log10 of the molar concentration.

compound: CC(C)[C@@]1(NC(=O)[C@@H]2C[C@@H]3c4cccc5[nH]cc(c45)C[C@H]3N(C)C2)O[C@@]2(O)[C@@H]3CCCN3C(=O)[C@H](Cc3ccccc3)N2C1=O.CS(=O)(=O)O [DIHYDROERGOCRISTINE MESYLATE]
pKi: 8.44

Could you tell me which pKi is on file for Cc1ccc(N(CC2=NCCN2)c2cccc(O)c2)cc1 [PHENTOLAMINE] ?
7.41

Could you tell me which pKi is on file for Clc1cccc(Cl)c1NC1=NCCN1 [CLONIDINE] ?
7.37

Could you tell me which pKi is on file for CC(C)[C@H]1C(=O)N2CCC[C@H]2[C@]2(O)O[C@](NC(=O)[C@@H]3C=C4c5cccc6[nH]cc(c56)C[C@H]4N(C)C3)(C(C)C)C(=O)N12 [ERGOCORNINE] ?
8.52

Could you tell me which pKi is on file for COc1nc(C)nc(Cl)c1NC1=NCCN1 [MOXONIDINE] ?
6.01

Could you tell me which pKi is on file for CC[C@@H](CO)NC(=O)[C@@H]1C=C2c3cccc4[nH]cc(c34)C[C@H]2N(C)C1 [METHYLERGONOVINE] ?
5.71

Could you tell me which pKi is on file for CCCN1C[C@H](CSC)C[C@@H]2c3cccc4[nH]cc(c34)C[C@H]21 [PERGOLIDE] ?
5.69
